Target: USPL1 (Homo sapiens)
Sequence (Q5W0Q7 whole entry, species assumed): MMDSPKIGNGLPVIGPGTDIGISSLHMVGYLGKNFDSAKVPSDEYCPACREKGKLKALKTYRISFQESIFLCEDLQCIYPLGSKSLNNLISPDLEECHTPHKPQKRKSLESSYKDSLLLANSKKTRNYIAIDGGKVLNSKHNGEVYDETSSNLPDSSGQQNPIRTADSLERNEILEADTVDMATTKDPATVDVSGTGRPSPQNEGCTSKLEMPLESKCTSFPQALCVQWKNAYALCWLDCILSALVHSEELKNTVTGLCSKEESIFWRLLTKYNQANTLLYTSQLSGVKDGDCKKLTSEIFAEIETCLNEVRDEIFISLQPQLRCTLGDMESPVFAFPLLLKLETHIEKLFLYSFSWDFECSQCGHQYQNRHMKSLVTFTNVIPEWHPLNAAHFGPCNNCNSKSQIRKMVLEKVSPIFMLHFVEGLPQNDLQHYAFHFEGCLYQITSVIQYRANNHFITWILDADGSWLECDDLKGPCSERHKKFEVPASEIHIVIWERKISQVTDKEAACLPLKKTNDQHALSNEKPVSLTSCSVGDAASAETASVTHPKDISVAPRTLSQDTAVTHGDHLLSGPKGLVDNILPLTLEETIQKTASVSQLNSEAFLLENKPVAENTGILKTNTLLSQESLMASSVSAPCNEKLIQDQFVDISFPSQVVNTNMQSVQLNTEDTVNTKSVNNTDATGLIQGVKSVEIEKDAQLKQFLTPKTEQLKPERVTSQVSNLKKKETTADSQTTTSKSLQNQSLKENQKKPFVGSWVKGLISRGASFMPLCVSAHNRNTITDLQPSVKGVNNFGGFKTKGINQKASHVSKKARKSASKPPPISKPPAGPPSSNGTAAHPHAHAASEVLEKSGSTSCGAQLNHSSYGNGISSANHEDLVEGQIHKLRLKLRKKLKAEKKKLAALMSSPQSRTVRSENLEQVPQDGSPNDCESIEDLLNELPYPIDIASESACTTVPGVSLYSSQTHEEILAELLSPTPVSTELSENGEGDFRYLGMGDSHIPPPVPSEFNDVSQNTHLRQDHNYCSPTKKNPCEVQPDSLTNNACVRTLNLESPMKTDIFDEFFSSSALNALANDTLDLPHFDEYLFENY
reported metric: IC50

1) C[C@@H]1[C@H]2CCN(C(=O)c3ncc(-c4ccnc(C#N)c4)o3)[C@H]2CN1C#N [MTX115325] : > 300 µM

---

Target: UniProtKB Q8N6M0
Sequence (Q8N6M0 1-293): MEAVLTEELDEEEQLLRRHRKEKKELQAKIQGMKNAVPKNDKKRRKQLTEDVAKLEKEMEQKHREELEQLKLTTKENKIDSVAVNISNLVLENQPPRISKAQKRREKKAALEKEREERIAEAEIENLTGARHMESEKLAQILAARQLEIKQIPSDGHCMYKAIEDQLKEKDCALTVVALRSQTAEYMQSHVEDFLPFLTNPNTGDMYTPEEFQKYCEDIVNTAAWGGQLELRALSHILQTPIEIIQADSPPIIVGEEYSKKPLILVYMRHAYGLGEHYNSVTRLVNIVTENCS
pIC50: −log10 of the molar value.
reported metric: pIC50

1) C[C@@H]1[C@H]2CCN(C(=O)c3ncc(-c4ccnc(C#N)c4)o3)[C@H]2CN1C#N : < 3.52

---

Sequence of the target: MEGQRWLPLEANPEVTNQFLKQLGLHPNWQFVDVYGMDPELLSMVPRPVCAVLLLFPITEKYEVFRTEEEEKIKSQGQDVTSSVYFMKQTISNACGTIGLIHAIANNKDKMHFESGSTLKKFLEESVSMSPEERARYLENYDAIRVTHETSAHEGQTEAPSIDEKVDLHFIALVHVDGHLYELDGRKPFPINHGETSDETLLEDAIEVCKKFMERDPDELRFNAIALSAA
reported metric: IC50

1. C[C@@H]1[C@H]2CCN(C(=O)c3ncc(-c4ccnc(C#N)c4)o3)[C@H]2CN1C#N : > 300 µM

---

Target: USP21 CD (Homo sapiens)
Sequence (Q9UK80 212-558 limits assumed): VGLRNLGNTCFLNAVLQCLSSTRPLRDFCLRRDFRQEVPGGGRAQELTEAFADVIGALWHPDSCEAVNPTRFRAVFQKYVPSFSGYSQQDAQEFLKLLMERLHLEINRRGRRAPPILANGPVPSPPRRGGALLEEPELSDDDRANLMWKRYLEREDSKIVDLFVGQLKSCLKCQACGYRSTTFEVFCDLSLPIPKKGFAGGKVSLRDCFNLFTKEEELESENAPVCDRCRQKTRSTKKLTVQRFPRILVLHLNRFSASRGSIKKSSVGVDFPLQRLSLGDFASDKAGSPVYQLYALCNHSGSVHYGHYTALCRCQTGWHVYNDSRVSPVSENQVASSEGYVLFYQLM
reported metric: IC50 (µM)

1) C[C@@H]1[C@H]2CCN(C(=O)c3ncc(-c4ccnc(C#N)c4)o3)[C@H]2CN1C#N [MTX115325] : 60.7

---

Assay: Mouse pharmacokinetics (IV clearance, oral bioavailability)
Type: in vivo
Conditions: blood, IV 2 mg/kg
reported metric: clearance (mL/min/kg)

1. C[C@@H]1[C@H]2CCN(C(=O)c3ncc(-c4ccnc(C#N)c4)o3)[C@H]2CN1C#N [MTX115325] : 19.7

---

Sequence of the target: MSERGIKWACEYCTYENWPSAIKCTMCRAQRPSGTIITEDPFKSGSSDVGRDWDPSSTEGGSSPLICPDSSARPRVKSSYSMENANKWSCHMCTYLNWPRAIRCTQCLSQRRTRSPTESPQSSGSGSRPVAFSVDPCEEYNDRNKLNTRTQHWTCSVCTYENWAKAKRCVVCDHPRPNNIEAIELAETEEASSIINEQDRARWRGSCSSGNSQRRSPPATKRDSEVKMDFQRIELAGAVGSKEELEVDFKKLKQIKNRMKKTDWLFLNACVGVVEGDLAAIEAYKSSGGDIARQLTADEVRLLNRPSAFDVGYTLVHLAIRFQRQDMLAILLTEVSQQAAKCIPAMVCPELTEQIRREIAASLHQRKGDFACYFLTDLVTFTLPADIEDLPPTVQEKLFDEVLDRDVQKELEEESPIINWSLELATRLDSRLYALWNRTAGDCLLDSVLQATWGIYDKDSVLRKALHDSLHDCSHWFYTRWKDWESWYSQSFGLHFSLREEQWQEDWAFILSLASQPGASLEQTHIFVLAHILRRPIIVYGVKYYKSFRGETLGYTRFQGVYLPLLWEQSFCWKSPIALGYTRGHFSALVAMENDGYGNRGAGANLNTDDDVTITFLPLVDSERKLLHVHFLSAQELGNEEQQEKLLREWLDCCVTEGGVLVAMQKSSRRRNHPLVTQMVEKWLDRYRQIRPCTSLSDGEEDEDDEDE
pIC50: −log10 of the molar value.
reported metric: pIC50

1. C[C@@H]1[C@H]2CCN(C(=O)c3ncc(-c4ccnc(C#N)c4)o3)[C@H]2CN1C#N : < 3.52

---

Sequence of the target: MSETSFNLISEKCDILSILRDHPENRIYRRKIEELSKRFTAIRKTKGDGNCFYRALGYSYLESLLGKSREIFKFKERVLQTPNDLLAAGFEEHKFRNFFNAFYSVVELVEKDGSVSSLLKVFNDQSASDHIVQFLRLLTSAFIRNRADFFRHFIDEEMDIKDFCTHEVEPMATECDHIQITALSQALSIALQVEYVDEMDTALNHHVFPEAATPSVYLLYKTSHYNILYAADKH
reported metric: IC50

1) C[C@@H]1[C@H]2CCN(C(=O)c3ncc(-c4ccnc(C#N)c4)o3)[C@H]2CN1C#N : > 300 µM

---

Target: USP1 (Homo sapiens)
Sequence (O94782 whole entry, species assumed): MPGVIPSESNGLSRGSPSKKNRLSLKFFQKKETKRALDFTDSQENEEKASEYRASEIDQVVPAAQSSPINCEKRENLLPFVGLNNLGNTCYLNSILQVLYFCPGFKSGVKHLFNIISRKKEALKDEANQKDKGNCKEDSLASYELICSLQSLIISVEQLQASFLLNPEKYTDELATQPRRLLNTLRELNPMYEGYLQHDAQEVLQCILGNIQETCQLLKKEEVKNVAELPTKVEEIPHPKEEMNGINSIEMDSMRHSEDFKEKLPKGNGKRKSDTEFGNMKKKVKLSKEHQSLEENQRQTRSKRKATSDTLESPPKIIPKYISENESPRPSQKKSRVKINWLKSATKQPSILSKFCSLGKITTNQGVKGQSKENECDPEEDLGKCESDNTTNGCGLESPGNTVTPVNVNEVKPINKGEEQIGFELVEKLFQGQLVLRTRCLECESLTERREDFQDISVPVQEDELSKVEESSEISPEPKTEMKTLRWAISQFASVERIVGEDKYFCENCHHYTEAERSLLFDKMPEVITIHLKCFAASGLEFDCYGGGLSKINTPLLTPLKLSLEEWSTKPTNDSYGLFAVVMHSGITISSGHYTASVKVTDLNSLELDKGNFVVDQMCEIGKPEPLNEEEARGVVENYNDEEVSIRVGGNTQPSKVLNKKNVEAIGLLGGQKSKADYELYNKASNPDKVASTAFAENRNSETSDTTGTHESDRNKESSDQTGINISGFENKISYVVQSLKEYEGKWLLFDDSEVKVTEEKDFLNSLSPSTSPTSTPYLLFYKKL
Sequence (Q8TAF3 whole entry partner, species assumed): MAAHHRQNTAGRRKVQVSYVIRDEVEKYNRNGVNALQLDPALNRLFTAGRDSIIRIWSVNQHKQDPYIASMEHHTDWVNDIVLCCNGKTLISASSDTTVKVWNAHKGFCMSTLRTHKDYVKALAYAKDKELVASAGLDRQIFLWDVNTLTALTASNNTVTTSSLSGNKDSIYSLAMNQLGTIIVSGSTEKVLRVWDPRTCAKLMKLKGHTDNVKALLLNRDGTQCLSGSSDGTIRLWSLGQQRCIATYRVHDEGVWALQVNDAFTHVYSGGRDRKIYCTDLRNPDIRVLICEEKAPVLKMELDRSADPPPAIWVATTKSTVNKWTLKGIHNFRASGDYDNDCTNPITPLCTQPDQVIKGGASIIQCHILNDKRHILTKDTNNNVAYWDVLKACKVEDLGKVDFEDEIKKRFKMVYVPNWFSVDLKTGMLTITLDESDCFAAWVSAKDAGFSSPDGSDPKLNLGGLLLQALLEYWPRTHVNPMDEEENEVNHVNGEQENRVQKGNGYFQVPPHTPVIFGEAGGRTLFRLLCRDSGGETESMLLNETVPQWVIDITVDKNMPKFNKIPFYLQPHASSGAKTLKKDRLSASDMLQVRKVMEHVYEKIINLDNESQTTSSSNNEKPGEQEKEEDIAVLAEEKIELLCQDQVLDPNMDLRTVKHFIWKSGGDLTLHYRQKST
reported metric: IC50

1) C[C@@H]1[C@H]2CCN(C(=O)c3ncc(-c4ccnc(C#N)c4)o3)[C@H]2CN1C#N [MTX115325] : > 300 µM

---

Target: USP46/UAF1 (Homo sapiens, UniProt P62068)
Sequence (P62068 whole entry, species assumed, one chain of several): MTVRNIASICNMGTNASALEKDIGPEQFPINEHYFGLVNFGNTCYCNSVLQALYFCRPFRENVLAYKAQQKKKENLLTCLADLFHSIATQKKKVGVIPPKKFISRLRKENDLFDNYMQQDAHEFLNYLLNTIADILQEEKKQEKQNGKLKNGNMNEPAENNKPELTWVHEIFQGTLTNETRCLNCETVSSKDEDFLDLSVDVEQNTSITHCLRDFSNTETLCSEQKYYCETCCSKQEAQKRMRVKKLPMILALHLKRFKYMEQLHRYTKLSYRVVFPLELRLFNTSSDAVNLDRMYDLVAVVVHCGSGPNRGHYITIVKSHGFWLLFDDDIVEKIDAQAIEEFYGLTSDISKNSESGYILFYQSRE
Assay: DUB/cathepsin selectivity biochemical assay
reported metric: IC50

1. C[C@@H]1[C@H]2CCN(C(=O)c3ncc(-c4ccnc(C#N)c4)o3)[C@H]2CN1C#N : > 300 µM

---

Target: USP15 (Homo sapiens, UniProt Q9Y4E8)
Sequence (Q9Y4E8 whole entry, species assumed): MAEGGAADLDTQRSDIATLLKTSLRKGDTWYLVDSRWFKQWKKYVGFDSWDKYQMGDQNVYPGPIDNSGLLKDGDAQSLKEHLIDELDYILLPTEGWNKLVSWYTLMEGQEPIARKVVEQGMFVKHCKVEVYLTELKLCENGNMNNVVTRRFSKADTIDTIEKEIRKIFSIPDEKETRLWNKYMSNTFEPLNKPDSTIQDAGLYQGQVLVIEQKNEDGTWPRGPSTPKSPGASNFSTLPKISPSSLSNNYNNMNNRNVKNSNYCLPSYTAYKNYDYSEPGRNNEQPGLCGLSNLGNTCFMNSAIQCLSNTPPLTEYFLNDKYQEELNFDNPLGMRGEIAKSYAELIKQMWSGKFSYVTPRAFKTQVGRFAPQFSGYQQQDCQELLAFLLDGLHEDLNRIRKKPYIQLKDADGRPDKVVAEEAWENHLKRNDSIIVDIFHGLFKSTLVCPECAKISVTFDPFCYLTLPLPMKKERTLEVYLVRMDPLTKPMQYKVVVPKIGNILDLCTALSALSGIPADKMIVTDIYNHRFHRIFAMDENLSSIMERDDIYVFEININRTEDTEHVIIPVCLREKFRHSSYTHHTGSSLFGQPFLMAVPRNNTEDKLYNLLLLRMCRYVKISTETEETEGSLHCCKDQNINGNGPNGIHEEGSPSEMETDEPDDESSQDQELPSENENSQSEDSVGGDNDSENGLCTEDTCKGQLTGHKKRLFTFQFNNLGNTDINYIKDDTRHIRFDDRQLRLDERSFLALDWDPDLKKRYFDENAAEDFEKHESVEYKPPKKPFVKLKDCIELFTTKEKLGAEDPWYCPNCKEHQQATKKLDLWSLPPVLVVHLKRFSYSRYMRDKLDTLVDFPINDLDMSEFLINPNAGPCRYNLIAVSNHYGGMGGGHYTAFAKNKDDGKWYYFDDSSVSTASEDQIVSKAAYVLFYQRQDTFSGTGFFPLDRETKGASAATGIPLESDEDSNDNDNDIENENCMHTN
pIC50: −log10 of the molar value.
reported metric: pIC50

1) C[C@@H]1[C@H]2CCN(C(=O)c3ncc(-c4ccnc(C#N)c4)o3)[C@H]2CN1C#N [MTX115325] : < 3.52

---

Target: USP13 (Homo sapiens, UniProt Q92995)
Sequence (Q92995 1-863): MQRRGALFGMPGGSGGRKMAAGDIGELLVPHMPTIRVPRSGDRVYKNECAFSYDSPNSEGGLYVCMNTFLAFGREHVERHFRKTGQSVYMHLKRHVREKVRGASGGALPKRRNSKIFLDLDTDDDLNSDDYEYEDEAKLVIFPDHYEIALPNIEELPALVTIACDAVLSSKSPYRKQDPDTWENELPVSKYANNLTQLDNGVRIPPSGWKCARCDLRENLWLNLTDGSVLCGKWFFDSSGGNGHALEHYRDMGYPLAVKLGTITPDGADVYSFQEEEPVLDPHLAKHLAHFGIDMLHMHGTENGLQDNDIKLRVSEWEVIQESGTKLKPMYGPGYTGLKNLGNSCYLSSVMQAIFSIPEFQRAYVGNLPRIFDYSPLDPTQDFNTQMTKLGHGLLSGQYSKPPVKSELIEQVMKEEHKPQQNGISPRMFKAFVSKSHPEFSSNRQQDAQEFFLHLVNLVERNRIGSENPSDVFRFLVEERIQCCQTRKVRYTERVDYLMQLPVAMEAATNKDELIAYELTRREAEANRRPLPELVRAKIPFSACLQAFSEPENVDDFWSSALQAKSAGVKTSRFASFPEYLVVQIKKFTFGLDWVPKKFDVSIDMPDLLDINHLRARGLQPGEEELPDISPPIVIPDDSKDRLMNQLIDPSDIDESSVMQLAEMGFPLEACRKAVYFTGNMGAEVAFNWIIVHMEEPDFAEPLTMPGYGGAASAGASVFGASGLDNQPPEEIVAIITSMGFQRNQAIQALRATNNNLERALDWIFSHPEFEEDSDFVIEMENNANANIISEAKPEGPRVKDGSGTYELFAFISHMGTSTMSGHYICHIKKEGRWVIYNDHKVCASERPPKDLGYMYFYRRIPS
reported metric: IC50

1. C[C@@H]1[C@H]2CCN(C(=O)c3ncc(-c4ccnc(C#N)c4)o3)[C@H]2CN1C#N [MTX115325] : > 300 µM

---

Biological target: USP19 (Homo sapiens, UniProt O94966)
pIC50: −log10 of the molar value.
reported metric: pIC50

1. C[C@@H]1[C@H]2CCN(C(=O)c3ncc(-c4ccnc(C#N)c4)o3)[C@H]2CN1C#N [MTX115325] : 3.56

---

Target: USP6 (Homo sapiens, UniProt P35125)
reported metric: IC50 (µM)

1. C[C@@H]1[C@H]2CCN(C(=O)c3ncc(-c4ccnc(C#N)c4)o3)[C@H]2CN1C#N [MTX115325] : 96.3
